- Test Conditions: human gut metagenome, 24 h, 2 µM; note: call rule not given here
Parameter: Bacterial Biotransformation

# annotated cases, reported Bacterial Biotransformation shown
| Molecule | Recorded Measurement |
| --- | --- |
| CC(C)(C)NC(=O)[C@H]1CC[C@H]2[C@@H]3CC[C@H]4NC(=O)C=C[C@]4(C)[C@H]3CC[C@]12C [FINASTERIDE] | Compound metabolized |
| CN(C)C(=O)Oc1cc(OC(=O)N(C)C)cc(C(O)CNC(C)(C)C)c1 (stereo not drawn) [BAMBUTEROL] | Compound metabolized |
| O=C1CC2(CCCC2)CC(=O)N1CCCCN1CCN(c2ncccn2)CC1 [BUSPIRONE] | Compound metabolized |
| N=C(N)NC(=O)Cc1c(Cl)cccc1Cl [GUANFACINE] | Compound NOT metabolized |
| COc1ccc(/C=C/C(=O)Nc2ccccc2C(=O)O)cc1OC | Compound NOT metabolized |

For every item below, please supply its Bacterial Biotransformation.
1. CCN(C(C)=O)c1cccc(-c2ccnc3c(C#N)cnn23)c1 [ZALEPLON]
2. C=C[C@H]1CN2CC[C@H]1C[C@H]2[C@H](O)c1ccnc2ccc(OC)cc12.C=C[C@H]1CN2CC[C@H]1C[C@H]2[C@H](O)c1ccnc2ccc(OC)cc12.O.O.O=S(=O)(O)O [QUININE SULFATE]
3. Br.COc1ccc2c(c1)[C@]13CCCC[C@@H]1[C@H](C2)N(C)CC3.O [DEXTROMETHORPHAN HYDROBROMIDE]

["Compound metabolized", "Compound metabolized", "Compound metabolized"]
